Target: T1, glucose-dependent insulinotropic peptide (gastric inhibitory polypeptide) receptor (GIPR), primary cAMP assay … (human, UniProt P48546 22-466)
T1 sequence (looked up): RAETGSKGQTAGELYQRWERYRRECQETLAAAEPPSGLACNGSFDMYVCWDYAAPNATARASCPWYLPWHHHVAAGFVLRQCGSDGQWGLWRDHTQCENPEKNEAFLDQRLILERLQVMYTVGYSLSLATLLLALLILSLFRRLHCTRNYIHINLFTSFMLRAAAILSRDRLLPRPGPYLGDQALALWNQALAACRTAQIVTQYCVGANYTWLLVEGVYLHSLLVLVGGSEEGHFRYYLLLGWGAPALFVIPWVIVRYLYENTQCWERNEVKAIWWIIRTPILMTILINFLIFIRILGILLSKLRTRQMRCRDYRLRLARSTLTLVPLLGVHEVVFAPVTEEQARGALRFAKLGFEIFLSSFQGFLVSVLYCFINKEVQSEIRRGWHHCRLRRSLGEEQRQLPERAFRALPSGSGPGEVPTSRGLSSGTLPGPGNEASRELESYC
Test: cell-based or functional assay
Starred links: 1 amine or outer side, 2 acyl side, 3 side chain; linkers in the order of their positions; H or OH if unused. Non-standard residues stand in square brackets, D forms with d. Groups on a side chain read outwards from the residue. Primed or numbered codes have the meaning given here. No end group written: not given here. *: point of attachment. γGlu = O=C(O)[C@H](CCC(=O)[*:2])N[*:1]; αMeF = C[C@](N)(Cc1ccccc1)C(=O)O; αMeK = C[C@](N)(CCCCN)C(=O)O; Lauroyl = CCCCCCCCCCCC(=O)*; αMeS = C[C@](N)(CO)C(=O)O; PEG2′ = not defined here; Aib = CC(C)(N)C(=O)O
readout: cAMP Primary assay EC50, n2 (nM)

H[Aib]EGS[αMeF]TSDV[αMeS]SYK([PEG2′-PEG2′-γGlu-Lauroyl])EGK([PEG2′-PEG2′-γGlu-Lauroyl])AA[αMeK]EFIAFK([PEG2′-PEG2′-γGlu-Lauroyl])VEGG-NH2 [SEQ ID NO: 484] | 19.9
H[Aib]EGS[αMeF]TSDK([PEG2′-PEG2′-γGlu-Lauroyl])SSYLEGEK([PEG2′-PEG2′-γGlu-Lauroyl])A[αMeK]EFIK([PEG2′-PEG2′-γGlu-Lauroyl])FVVEGG-NH2 [SEQ ID NO: 441] | 19.5
H[Aib]EGS[αMeF]TSDV[αMeS]SYK([PEG2′-PEG2′-γGlu-Lauroyl])EK([PEG2′-PEG2′-γGlu-Lauroyl])EAA[αMeK]EFIAFK([PEG2′-PEG2′-γGlu-Lauroyl])VEGG-NH2 [SEQ ID NO: 483] | 19.6
H[Aib]EGS[αMeF]TSDV[αMeS]SYK([PEG2′-PEG2′-γGlu-Lauroyl])EGEK([PEG2′-PEG2′-γGlu-Lauroyl])A[αMeK]EFIK([PEG2′-PEG2′-γGlu-Lauroyl])FVVEGG-NH2 [SEQ ID NO: 453] | 19.5
H[Aib]EGS[αMeF]TSDVSK([PEG2′-PEG2′-γGlu-Lauroyl])YLEK([PEG2′-PEG2′-γGlu-Lauroyl])EAA[αMeK]EFIAFK([PEG2′-PEG2′-γGlu-Lauroyl])VEGG-NH2 [SEQ ID NO: 475] | 19.5
H[Aib]EGS[αMeF]TSDK([PEG2′-PEG2′-γGlu-Lauroyl])SSYLEK([PEG2′-PEG2′-γGlu-Lauroyl])EAA[αMeK]EFIAK([PEG2′-PEG2′-γGlu-Lauroyl])VVEGG-NH2 [SEQ ID NO: 455] | 19.8
H[Aib]EGS[αMeF]TSDV[αMeS]SK([PEG2′-PEG2′-γGlu-Lauroyl])LEGEK([PEG2′-PEG2′-γGlu-Lauroyl])A[αMeK]EFIK([PEG2′-PEG2′-γGlu-Lauroyl])FVVEGG-NH2 [SEQ ID NO: 449] | 19.7
H[Aib]EGS[αMeF]TSDV[αMeS]SYK([PEG2′-PEG2′-γGlu-Lauroyl])EGK([PEG2′-PEG2′-γGlu-Lauroyl])AA[αMeK]EFIAK([PEG2′-PEG2′-γGlu-Lauroyl])VVEGG-NH2 [SEQ ID NO: 468] | 20
H[Aib]EGS[αMeF]TSDVSK([PEG2′-PEG2′-γGlu-Lauroyl])YLEGK([PEG2′-PEG2′-γGlu-Lauroyl])AA[αMeK]EFIAK([PEG2′-PEG2′-γGlu-Lauroyl])VVEGG-NH2 [SEQ ID NO: 460] | 20
H[Aib]EGS[αMeF]TSDV[αMeS]SYK([PEG2′-PEG2′-γGlu-Lauroyl])EK([PEG2′-PEG2′-γGlu-Lauroyl])EAA[αMeK]EFIAK([PEG2′-PEG2′-γGlu-Lauroyl])VVEGG-NH2 [SEQ ID NO: 467] | 19.8
H[Aib]EGS[αMeF]TSDK([PEG2′-PEG2′-γGlu-Lauroyl])SSYLEGEK([PEG2′-PEG2′-γGlu-Lauroyl])A[αMeK]EFIAFK([PEG2′-PEG2′-γGlu-Lauroyl])VEGG-NH2 [SEQ ID NO: 473] | 19.6
H[Aib]EGS[αMeF]TSDK([PEG2′-PEG2′-γGlu-Lauroyl])SSYLEGEAA[αMeK]K([PEG2′-PEG2′-γGlu-Lauroyl])FIAFK([PEG2′-PEG2′-γGlu-Lauroyl])VEGG-NH2 [SEQ ID NO: 474] | 19.9
H[Aib]EGS[αMeF]TSDV[αMeS]SK([PEG2′-PEG2′-γGlu-Lauroyl])LEGEK([PEG2′-PEG2′-γGlu-Lauroyl])A[αMeK]EFIAK([PEG2′-PEG2′-γGlu-Lauroyl])VVEGG-NH2 [SEQ ID NO: 465] | 20
H[Aib]EGS[αMeF]TSDVSK([PEG2′-PEG2′-γGlu-Lauroyl])YLEGEAA[αMeK]K([PEG2′-PEG2′-γGlu-Lauroyl])FIAFK([PEG2′-PEG2′-γGlu-Lauroyl])VEGG-NH2 [SEQ ID NO: 478] | 19.8
